value_type: pIC50
Quick note: pIC50 values are minus log10 of concentrations in mol/L.

Ask: Provide the documented pIC50 with Tet(50) (Unknown prokaryotic organism, UniProt A0A059WYP6) as the system for Cc1c2c(c(O)c3c(O)cccc13)C(=O)[C@]1(O)C(=O)C(C(N)=O)=C(O)[C@@H](N(C)C)[C@@H]1C2 [anhydrotetracycline]
Reply: 4.08

###

biological target: Tet(55) (Unknown prokaryotic organism, UniProt A0A0H4TXY1); assay: biochemical
Sequence (A0A0H4TXY1 whole entry): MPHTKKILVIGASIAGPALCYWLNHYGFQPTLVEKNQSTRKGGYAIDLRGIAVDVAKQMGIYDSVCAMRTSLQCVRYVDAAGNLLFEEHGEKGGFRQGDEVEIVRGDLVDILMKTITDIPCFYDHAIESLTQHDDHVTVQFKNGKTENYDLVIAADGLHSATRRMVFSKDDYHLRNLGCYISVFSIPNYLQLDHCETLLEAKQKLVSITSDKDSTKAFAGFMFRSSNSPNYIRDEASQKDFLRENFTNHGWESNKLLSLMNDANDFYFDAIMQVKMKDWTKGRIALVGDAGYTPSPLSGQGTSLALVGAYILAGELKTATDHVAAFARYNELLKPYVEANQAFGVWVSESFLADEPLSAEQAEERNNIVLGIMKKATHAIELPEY
value_type: IC50 (µM)
Give just the number in µM; leave the unit off.

Ask: Would you kindly share the measured IC50 for Cc1c2c(c(O)c3c(O)ccc(Cl)c13)C(=O)[C@]1(O)C(=O)C(C(N)=O)=C(O)[C@@H](N(C)C)[C@@H]1C2 [anhydrochlortetracycline] ?
Reply: 9

Ask: Would you kindly share the measured IC50 for CN(C)[C@@H]1C(O)=C(C(N)=O)C(=O)[C@@]2(O)C(=O)c3c(cc4c(Cl)ccc(O)c4c3O)C[C@@H]12 [anhydrodemeclocycline] ?
Reply: 9

Ask: Would you kindly share the measured IC50 for Cc1c2c(c(O)c3c(O)ccc(I)c13)C(=O)[C@]1(O)C(=O)C(C(N)=O)=C(O)[C@@H](N(C)C)[C@@H]1C2 [anhydroiodotetracycline] ?
Reply: 6

###

target: Tet(55) (Unknown prokaryotic organism); assay: biochemical
value_type: IC50 (µM)
Give just the number in µM; leave the unit off.

Ask: Would you kindly share the measured IC50 for Cc1c2c(c(O)c3c(O)cccc13)C(=O)[C@]1(O)C(=O)C(C(N)=O)=C(O)[C@@H](N(C)C)[C@@H]1C2 [anhydrotetracycline] ?
Reply: 25.6
